biological target: P2X3 (Homo sapiens (Human)); experiment: Calcium uptake assay (P2X antagonist assay), P2X3; conditions: inhibition of agonist-induced calcium influx
Sequence (P56373 whole entry): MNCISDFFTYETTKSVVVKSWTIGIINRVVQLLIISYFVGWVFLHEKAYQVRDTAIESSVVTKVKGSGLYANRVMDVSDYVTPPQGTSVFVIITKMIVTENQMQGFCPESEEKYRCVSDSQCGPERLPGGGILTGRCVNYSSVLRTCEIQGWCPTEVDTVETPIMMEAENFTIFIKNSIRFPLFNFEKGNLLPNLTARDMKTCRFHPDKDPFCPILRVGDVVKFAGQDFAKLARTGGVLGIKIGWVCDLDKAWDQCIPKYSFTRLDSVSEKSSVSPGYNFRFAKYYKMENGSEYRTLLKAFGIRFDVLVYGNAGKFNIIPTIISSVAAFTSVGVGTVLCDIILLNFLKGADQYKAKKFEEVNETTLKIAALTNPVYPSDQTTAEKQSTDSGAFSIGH
Provide the reported IC50 of each item.
Answers are plain numbers, in nM.

Cc1ccc(N2CCc3ncnc(NC(C)c4ccccc4F)c3C2)nc1 (centres unmarked) [Compound 12] = 88
COc1ccc([C@@H](CCO)Nc2ncnc3c2CN(c2ccc(Cl)cn2)CC3)cn1 [Compound 57] = 103
COc1ccc(C(C)Nc2ncnc3c2CN(c2ccc(C)cn2)CC3)cc1F (centres unmarked) [Compound 21] = 80
Cc1ccc(N2CCc3ncnc(NC(CCO)c4ccc(C(F)(F)F)nc4)c3C2)nc1 (centres unmarked) [Compound 56] = 67

Next:
Lookup: May I ask what IC50 has been recorded for CCc1ccc(C(C)Nc2ncnc3c2CN(c2ccc(C)cn2)CC3)cc1 (centres unmarked) [Compound 13] ?
Found: 603

The reported numbers originate from patent US8653091B2.
